Origin of measurements: patent US20240262866A1

test: Pharmacokinetic study after single intravenous injection; format: in vivo, SD rats; details: Sprague-Dawley, rat, plasma, female SD rats, 10 mg/kg i.v., read-out: VdSS
Measurement Label: Vd
Quick note: number first, unit second.

# Vd (molecule: CCCCCOc1ccc(-c2ccc(-c3ccc(C(=O)N[C@H]4C[C@@H](O)[C@@H](OC[C@H]5CCC[N+]5(C)C)NC(=O)[C@@H]5[C@@H](O)[C@@H](C)CN5C(=O)[C@H]([C@@H](C)O)NC(=O)[C@H]([C@H](O)[C@@H](O)c5ccc(O)cc5)NC(=O)[C@@H]5C[C@@H](O)CN5C(=O)[C@H]([C@@H](C)O)NC4=O)cc3)cc2)cc1 ) is 1.8 L/kg
